Measured SIF by item
Method Summary: Stability in Simulated Intestinal Fluid (SIF)
Assay type: in vitro ADME
Set-up: key: % parent compound remaining relative to 0-minute sample
Experimental Conditions: % remaining @ 1 h

Field: example entries. Status: answers known.
{"columns": ["Structure Smiles String", "SIF"],
 "data": [
  ["CC(C)C[C@@H](N)C(=O)OCn1ccc2c1c(=O)[nH]c(=S)n2CCOC(C)C.O=C(O)C(F)(F)F", "24%@ 1 h"],
  ["CC(C)C[C@H](N)C(=O)OCSc1nc(=O)c2c(ccn2COC(=O)[C@@H](N)CC(C)C)n1CCOC(C)C.O=C(O)C(F)(F)F.O=C(O)C(F)(F)F", "2%@ 1 h"],
  ["CC(C)C[C@@H](NC(=O)OC(C)(C)C)C(=O)OCSc1nc(=O)c2c(ccn2COC(=O)[C@@H](CC(C)C)NC(=O)OC(C)(C)C)n1CCOC(C)C", "2%@ 1 h"]
]}

Lookup: Dear colleague, I am looking for the recorded SIF of the following compound: `CC(C)C[C@H](N)C(=O)OCn1ccc2c1c(=O)[nH]c(=S)n2CCOC(C)C.O=C(O)C(F)(F)F`
Found: 42%@ 1 h

Lookup: Same lookup for `CC(C)C[C@H](N)C(=O)OCn1c(=O)c2c(ccn2COC(=O)[C@@H](N)CC(C)C)n(CCOC(C)C)c1=S.O=C(O)C(F)(F)F.O=C(O)C(F)(F)F` , please.
Found: 61%@ 1 h

Lookup: Also `CC(C)C[C@H](NC(=O)OC(C)(C)C)C(=O)OCn1c(=O)c2c(ccn2COC(=O)[C@H](CC(C)C)NC(=O)OC(C)(C)C)n(CCOC(C)C)c1=S` ?
Found: 6%@ 1 h

Lookup: Continue with `CC(C)C[C@@H](N)C(=O)OCSc1nc(=O)c2c(ccn2COC(=O)[C@H](N)CC(C)C)n1CCOC(C)C.O=C(O)C(F)(F)F.O=C(O)C(F)(F)F`
Found: 3%@ 1 h
